Listing of entries alongside the reported Kd.
subjectOfTest: T1, RSV F glycoprotein (NUF4) (respiratory syncytial virus)
T1 chain 1: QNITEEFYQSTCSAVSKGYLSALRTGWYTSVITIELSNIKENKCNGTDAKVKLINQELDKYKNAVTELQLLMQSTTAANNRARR
T1 chain 2: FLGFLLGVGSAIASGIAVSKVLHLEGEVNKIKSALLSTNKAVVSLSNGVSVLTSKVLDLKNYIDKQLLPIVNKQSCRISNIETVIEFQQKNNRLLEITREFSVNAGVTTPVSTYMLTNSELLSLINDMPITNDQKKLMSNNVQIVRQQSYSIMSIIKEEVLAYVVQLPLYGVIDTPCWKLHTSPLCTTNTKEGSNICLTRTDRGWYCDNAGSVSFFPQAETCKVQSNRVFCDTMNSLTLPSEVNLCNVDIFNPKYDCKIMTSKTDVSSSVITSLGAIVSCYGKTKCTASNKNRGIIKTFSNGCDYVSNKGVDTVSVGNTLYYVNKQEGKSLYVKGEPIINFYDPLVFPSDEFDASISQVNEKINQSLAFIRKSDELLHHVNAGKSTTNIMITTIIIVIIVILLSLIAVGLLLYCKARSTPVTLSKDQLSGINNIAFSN
measurementDescription: BIAcore, mAb vs NUF4 (2:1)
Report the figure along with its unit, number first.

Use these answered entries as a reference point.
>  <binder>
A4B4 (monoclonal antibody) (antibody, V domains shown, mAb; also called A4B4/A4B4 (HC/LC)) VH: QVTLRESGPALVKPTQTLTLTCTFSGFSLSTAGMSVGWIRQPPGKALEWLADIWWDDKKHYNPSLKDRLTISKDTSKNQVVLKVTNMDPADTATYYCARDMIFNFYFDVWGQGTTVTVSS VL: DIQMTQSPSTLSASVGDRVTITCSASSRVGYMHWYQQKPGKAPKLLIYDTFFLDSGVPSRFSGSGSGTEFTLTISSLQPDDFATYYCFQGSGYPFTFGGGTKLEIK

>  <Kd>
2 nM

$$$$
>  <binder>
A1e9 (monoclonal antibody) (antibody, V domains shown, mAb with framework and constant regions of SYNAGIS; also called Ale9) VH: QVTLRESGPALVKPTQTLTLTCTFSGFSLSTPGMSVGWIRQPPGKALEWLADIWWDGKKHYNPSLKDRLTISKDTSKNQVVLKVTNMDPADTATYYCARDMIFNWYFDVWGQGTTVTVSS VL: DIQMTQSPSTLSASVGDRVTITCSLSSRVGYMHWYQQKPGKAPKLLIYDTFKLSSGVPSRFSGSGSGTEFTLTISSLQPDDFATYYCFQGSGYPFTFGGGTKVEIK

>  <Kd>
4.22 nM

$$$$
>  <binder>
A12a6 (monoclonal antibody) (antibody, V domains shown, mAb with framework and constant regions of SYNAGIS) VH: QVTLRESGPALVKPTQTLTLTCTFSGFSLSTAGMSVGWIRQPPGKALEWLADIWWDGKKDYNPSLKDRLTISKDTSKNQVVLKVTNMDPADTATYYCARDMIFNFYFDVWGQGTTVTVSS VL: DIQMTQSPSTLSASVGDRVTITCSASSRVGYMHWYQQKPGKAPKLLIYDTFKLSSGVPSRFSGSGSGTEFTLTISSLQPDDFATYYCFQGSGYPFTFGGGTKVEIK

>  <Kd>
1.87 nM

$$$$

Continue with the binder presented below.
Enquiry: Recorded Kd for A8c7 (monoclonal antibody) (antibody, V domains shown, mAb with framework and constant regions of SYNAGIS) VH: QVTLRESGPALVKPTQTLTLTCTFSGFSLSTAGMSVGWIRQPPGKALEWLADIWWDDKKSYNPSLKDRLTISKDTSKNQVVLKVTNMDPADTATYYCARDMIFNWYFDVWGQGTTVTVSS VL: DIQMTQSPSTLSASVGDRVTITCSASSRVGYMHWYQQKPGKAPKLLIYDTRYQSSGVPSRFSGSGSGTEFTLTISSLQPDDFATYYCFQGSGYPFTFGGGTKLEIK , please?
Return: 2.65 nM
